subjectOfTest: Cytochrome P450 2C19 (Homo sapiens) (UniProt P33261)
Sequence (P33261 whole entry, looked up): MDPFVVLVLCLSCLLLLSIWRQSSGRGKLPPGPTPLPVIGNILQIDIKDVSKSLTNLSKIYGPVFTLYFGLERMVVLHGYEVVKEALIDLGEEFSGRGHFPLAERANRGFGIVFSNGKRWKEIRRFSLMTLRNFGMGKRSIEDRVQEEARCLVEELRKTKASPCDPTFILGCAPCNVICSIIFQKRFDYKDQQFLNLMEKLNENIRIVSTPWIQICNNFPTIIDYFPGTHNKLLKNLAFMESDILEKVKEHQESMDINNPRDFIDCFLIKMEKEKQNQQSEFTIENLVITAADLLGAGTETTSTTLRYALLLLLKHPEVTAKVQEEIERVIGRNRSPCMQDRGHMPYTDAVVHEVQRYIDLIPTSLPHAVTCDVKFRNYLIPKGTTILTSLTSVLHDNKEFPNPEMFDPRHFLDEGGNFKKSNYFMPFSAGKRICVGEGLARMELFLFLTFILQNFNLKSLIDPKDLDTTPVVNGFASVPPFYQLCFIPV
assayText: Cytochrome panel assay with activity outcomes
recordedConditions: recombinant CYP, pro-luciferin dealkylation, luminescence, p450-cyp2c19; series mostly up to 57.1 µM
Protocol: The P450 gene superfamily is involved in the metabolism and clearance of xenobiotics. This assay used various human CYP P450 isozymes to measure the dealkylation of various pro-luciferin substrates to luciferin. The luciferin is then measured by luminescence after the addition of a luciferase detection reagent. […] Inhibitors and some substrates limit the production of luciferin, and decrease measured luminescence. […] 8, Detection, 1 sec, ViewLux luminescent read […]
Hit rate of the full screen: of about 16,000 compounds, about 5,800 (36%) were called active. About 23% were inconclusive and are not listed. Calls follow the shape of the dose curve; as a rule, active = well fitted curve in the direction sought with a large enough effect; inconclusive = small, poorly fitted or top-dose-only effect, or effect the other way; inactive = no such curve, though single readings can be large or run the other way. This is one part of the list.
Can you answer with just one of these options? t for active, f for inactive

Can you look up the reported call for NCCc1c[nH]c2ccc(O)cc12 for me?
f

Can you look up the reported call for Cc1cc(C)nc(NC2=NCCS2)n1 for me?
f

Can you look up the reported call for N[C@@H]1C=CC=C(C(=O)O)C1 for me?
f

Can you look up the reported call for O=C(CNS(=O)(=O)c1cccs1)N1CCC2(CC1)OCCO2 for me?
t

Can you look up the reported call for C[C@@H]1Cc2cc3c(cc2C(c2ccc(N)cc2)=NN1)OCO3 for me?
t

Can you look up the reported call for COc1cc(CCN)ccc1O for me?
f

Can you look up the reported call for O=C(c1ccccc1F)c1cn(CC(=O)N2CCOCC2)c2ccccc12 for me?
t

Can you look up the reported call for CNC(=O)Oc1ccc2c(c1)[C@@]1(C)CCN(C)[C@@H]1N2C for me?
f

Can you look up the reported call for c1csc(CN2CC3(CCNCC3)C2)n1 for me?
f

Can you look up the reported call for CCCC(=O)Nc1ccc(N2CCN(CC)CC2)c(Cl)c1 for me?
f

Can you look up the reported call for CNC[C@H](O)c1ccc(O)c(OC)c1 for me?
f

Can you look up the reported call for O=C1c2ccccc2-c2cc([N+](=O)[O-])c([N+](=O)[O-])cc21 for me?
t

Can you look up the reported call for CN1CCCC2(CCN(C(=O)c3ccncc3)CC2)C1 for me?
f

Can you look up the reported call for CNCCc1c[nH]c2ccc(O)cc12 for me?
f

Can you look up the reported call for CC(C)NP(=O)(NC(C)C)OP(=O)(NC(C)C)NC(C)C for me?
f

Can you look up the reported call for Cn1c[n+](C)cc1C(O)c1ccccc1 (centres undefined) for me?
f

Can you look up the reported call for COc1ccc(NC(=O)N2CCCC3(CCN(C(=O)Oc4ccccc4)CC3)C2)cc1 for me?
f

Can you look up the reported call for COc1ccc(C[C@H]2NC[C@H](O)[C@@H]2OC(C)=O)cc1 for me?
t

Can you look up the reported call for c1ccc(N2CCC3(CCNCC3)CC2)cc1 for me?
f

* * *

subjectOfTest: Cytochrome P450 2C19 (Homo sapiens) (UniProt P33261)
assayText: Cytochrome panel assay with activity outcomes; as to activity, negative = inhibition: % is scaled to controls: 0 for no effect and ±100 for the full control effect
recordedConditions: recombinant CYP, pro-luciferin dealkylation, luminescence, p450-cyp2c19; series mostly up to 57.1 µM
The campaign covered roughly 16,000 compounds. About 5,800 (36%) were called active. About 23% were inconclusive and are not listed. The list shows a part of the results.
outcomeMeasure: activity, negative = inhibition

# activity, negative = inhibition (compound: N[C@@H](Cc1ccccc1)P(=O)(O)O ) is -2.53% [at 11.4 µM] (inactive)

# activity, negative = inhibition (compound: O=P(O)(O)CCP(=O)(O)O ) is 13.6% [at 11.4 µM] (inactive)

# activity, negative = inhibition (compound: COc1ccc2cc1Oc1ccc(cc1)C[C@H]1c3cc(c(OC)cc3CCN1C)Oc1c(OC)c(OC)cc3c1[C@@H](C2)N(C)CC3 ) is -36.6% [at 11.4 µM] (inactive)

# activity, negative = inhibition (compound: Oc1ccc([C@H](O)[C@@H]2CCCCN2)cc1O ) is 10% [at 11.4 µM] (inactive)
